# Test system: SK-MEL-1
# experiment_notes: Antiproliferative activity against human SK-MEL-1 cells assessed as growth inhibition incubated at 10 uM for 24 hrs by MTT assay relative to control
# Assay type: functional
# condition_summary: read-out: GI
measured_property: inhibition of growth at 10 µM (%)

>>> df
                                   compound              measured_property  readout_value
0  S=C(Nc1ccc(Cl)cc1)N1CCN(c2nnc(Cc3ccccc3)c3ccccc23)CC1  inhibition of growth at 10 µM            5.4
1  O=C(Nc1ccc(Cl)cc1)N1CCN(c2nnc(Cc3ccccc3)c3ccccc23)CC1  inhibition of growth at 10 µM           50.1
2  O=C(c1ccc(Cl)cc1)N1CCN(c2nnc(Cc3ccccc3)c3ccccc23)CC1  inhibition of growth at 10 µM           10.4
3  COc1ccc(C(=O)N2CCN(c3nnc(Cc4ccccc4)c4ccccc34)CC2)cc1  inhibition of growth at 10 µM           11.8
4  COc1ccc(Cc2nnc(N3CCN(C(=O)Nc4ccccc4)CC3)c3ccccc23)cc1  inhibition of growth at 10 µM           27.1
5  COc1ccc(Cc2nnc(N3CCN(C(=S)Nc4ccc(Cl)cc4)CC3)c3ccccc23)cc1  inhibition of growth at 10 µM           64.7
6  O=C(c1ccccc1)N1CCN(c2nnc(Cc3ccccc3)c3ccccc23)CC1  inhibition of growth at 10 µM           54.9
7  COc1cccc(NC(=S)N2CCN(c3nnc(Cc4ccccc4)c4ccccc34)CC2)c1  inhibition of growth at 10 µM           49.3
8  O=C(Nc1ccc(Cl)c(C(F)(F)F)c1)N1CCN(c2nnc(Cc3ccccc3)c3ccccc23)CC1  inhibition of growth at 10 µM           3.34
9  COc1ccc(Cc2nnc(N3CCN(C(=S)Nc4cccc(Cl)c4)CC3)c3ccccc23)cc1  inhibition of growth at 10 µM           84.2

---

Reported values: pIC50 for Cyclin-dependent kinase 2 (Homo sapiens, UniProt P24941), one per item.
pIC50: −log10 of the molar value.
measured_property: pIC50

                                   compound                              study_target  measured_property  readout_value
0  COc1ccc(Cc2nnc(N3CCN(C(=O)Nc4ccc(OC)cc4)CC3)c3ccccc23)cc1  Cyclin-dependent kinase 2 (Homo sapiens, UniProt P24941)              pIC50           6.46
1  COc1ccc(Cc2nnc(N3CCN(C(=O)Nc4ccc(Cl)c(C(F)(F)F)c4)CC3)c3ccccc23)cc1  Cyclin-dependent kinase 2 (Homo sapiens, UniProt P24941)              pIC50           6.52
2  COc1ccc(Cc2nnc(N3CCN(C(=S)Nc4ccc(Cl)cc4)CC3)c3ccccc23)cc1  Cyclin-dependent kinase 2 (Homo sapiens, UniProt P24941)              pIC50           6.27
3  S=C(Nc1ccccc1)N1CCN(c2nnc(Cc3ccccc3)c3ccccc23)CC1  Cyclin-dependent kinase 2 (Homo sapiens, UniProt P24941)              pIC50           6.62
4  COc1ccc(Cc2nnc(N3CCN(C(=O)Nc4ccccc4)CC3)c3ccccc23)cc1  Cyclin-dependent kinase 2 (Homo sapiens, UniProt P24941)              pIC50           6.29

---

# Tested on: SK-MEL-1
# experiment_notes: Antiproliferative activity against human SK-MEL-1 cells assessed as growth inhibition incubated at 10 uM for 24 hrs by MTT assay relative to control
# Format: functional
# condition_summary: read-out: GI
inhibition of growth at 10 µM listing for selected compounds.
measured_property: inhibition of growth at 10 µM (%)

                                   compound  unit_annotation  readout_value
0  S=C(Nc1ccccc1)N1CCN(c2nnc(Cc3ccccc3)c3ccccc23)CC1                %           50.9
1  COc1ccc(NC(=O)N2CCN(c3nnc(Cc4ccccc4)c4ccccc34)CC2)cc1                %           54.3
2  O=C(Nc1ccccc1)N1CCN(c2nnc(Cc3ccccc3)c3ccccc23)CC1                %           49.7
3  COc1ccc(Cc2nnc(N3CCN(C(=O)Nc4ccc(Cl)c(C(F)(F)F)c4)CC3)c3ccccc23)cc1                %             74
4  COc1ccc(Cc2nnc(N3CCN(C(=S)Nc4ccc(OC)cc4)CC3)c3ccccc23)cc1                %           29.4

---

# System: SK-MEL-1
# experiment_notes: Antiproliferative activity against human SK-MEL-1 cells assessed as growth inhibition incubated at 10 uM for 24 hrs by MTT assay relative to control
# Format: functional
# condition_summary: read-out: GI
inhibition of growth at 10 µM listing for selected compounds.
measured_property: inhibition of growth at 10 µM

>>> df
                                   compound  study_target              measured_property  readout_value
0  S=C(Nc1cccc(Cl)c1)N1CCN(c2nnc(Cc3ccccc3)c3ccccc23)CC1      SK-MEL-1  inhibition of growth at 10 µM          85.4%
1  COc1ccc(NC(=S)N2CCN(c3nnc(Cc4ccccc4)c4ccccc34)CC2)cc1      SK-MEL-1  inhibition of growth at 10 µM          6.64%
2  COc1ccc(Cc2nnc(N3CCN(C(=O)Nc4ccc(OC)cc4)CC3)c3ccccc23)cc1      SK-MEL-1  inhibition of growth at 10 µM            39%
3  COc1ccc(Cc2nnc(N3CCN(C(=S)Nc4ccccc4)CC3)c3ccccc23)cc1      SK-MEL-1  inhibition of growth at 10 µM          11.4%
4  COc1ccc(Cc2nnc(N3CCN(C(=O)c4ccccc4)CC3)c3ccccc23)cc1      SK-MEL-1  inhibition of growth at 10 µM          2.02%

---

# study_target: Insulin-like growth factor 1 receptor (Homo sapiens, UniProt P08069)
# Sequence (P08069 31-736 limits assumed): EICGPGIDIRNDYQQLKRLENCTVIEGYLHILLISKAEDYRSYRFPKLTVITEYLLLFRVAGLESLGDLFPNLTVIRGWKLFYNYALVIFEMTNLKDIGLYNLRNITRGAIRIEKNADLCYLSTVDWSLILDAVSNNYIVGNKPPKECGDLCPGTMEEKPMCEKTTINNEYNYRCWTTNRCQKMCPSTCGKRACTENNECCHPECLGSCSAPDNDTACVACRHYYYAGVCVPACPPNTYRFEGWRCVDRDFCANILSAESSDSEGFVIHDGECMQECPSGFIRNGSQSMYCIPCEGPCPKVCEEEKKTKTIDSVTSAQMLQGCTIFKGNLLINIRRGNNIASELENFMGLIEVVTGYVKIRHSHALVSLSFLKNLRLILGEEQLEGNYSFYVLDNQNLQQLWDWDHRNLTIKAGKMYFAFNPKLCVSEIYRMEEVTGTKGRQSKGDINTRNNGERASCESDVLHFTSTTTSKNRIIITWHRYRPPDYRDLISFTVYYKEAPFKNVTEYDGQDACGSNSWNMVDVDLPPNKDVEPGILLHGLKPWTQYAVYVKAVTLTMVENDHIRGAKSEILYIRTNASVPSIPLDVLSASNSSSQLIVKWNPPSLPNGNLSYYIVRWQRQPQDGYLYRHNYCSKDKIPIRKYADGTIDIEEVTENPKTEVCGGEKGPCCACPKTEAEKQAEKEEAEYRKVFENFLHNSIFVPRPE
# Sequence (P08069 741-1367 limits assumed): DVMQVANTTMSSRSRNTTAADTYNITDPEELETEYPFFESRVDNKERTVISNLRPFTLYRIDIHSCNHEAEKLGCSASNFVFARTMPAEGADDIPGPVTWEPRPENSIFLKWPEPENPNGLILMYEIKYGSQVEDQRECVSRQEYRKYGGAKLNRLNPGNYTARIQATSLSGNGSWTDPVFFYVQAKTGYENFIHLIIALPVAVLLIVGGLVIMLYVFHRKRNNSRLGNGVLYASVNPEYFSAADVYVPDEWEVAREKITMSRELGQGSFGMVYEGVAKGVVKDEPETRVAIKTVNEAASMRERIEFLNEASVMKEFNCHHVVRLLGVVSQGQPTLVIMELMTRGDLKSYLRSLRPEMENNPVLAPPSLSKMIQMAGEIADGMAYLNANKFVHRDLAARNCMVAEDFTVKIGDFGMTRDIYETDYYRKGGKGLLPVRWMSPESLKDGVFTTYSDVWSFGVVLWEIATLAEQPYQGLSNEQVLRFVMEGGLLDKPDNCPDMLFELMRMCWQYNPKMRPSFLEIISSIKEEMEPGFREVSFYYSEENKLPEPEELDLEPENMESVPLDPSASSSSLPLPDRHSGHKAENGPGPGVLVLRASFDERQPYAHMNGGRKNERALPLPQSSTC
# experiment_notes: Inhibition of IGF1R (unknown origin) by FRET assay
Checkbox rule: IC50 lower than 5 µM = label 1; IC50 not lower than 5 µM = label 0.

                                   compound  class_name
0  COc1ccc(Cc2nnc(N3CCN(C(=S)Nc4ccc(OC)cc4)CC3)c3ccccc23)cc1     label 0
1  COc1ccc(Cc2nnc(N3CCN(C(=O)Nc4ccccc4)CC3)c3ccccc23)cc1     label 0
2  S=C(Nc1ccccc1)N1CCN(c2nnc(Cc3ccccc3)c3ccccc23)CC1     label 1
3  COc1ccc(NC(=O)N2CCN(c3nnc(Cc4ccccc4)c4ccccc34)CC2)cc1     label 1
4  COc1ccc(Cc2nnc(N3CCN(C(=S)Nc4ccc(Cl)cc4)CC3)c3ccccc23)cc1     label 0
5  O=C(c1ccccc1)N1CCN(c2nnc(Cc3ccccc3)c3ccccc23)CC1     label 1

---

inhibition of growth at 10 µM listing for selected molecules.
# System: T84
# experiment_notes: Antiproliferative activity against human T84 cells assessed as growth inhibition incubated at 10 uM for 24 hrs by MTT assay relative to control
# Assay type: functional
# condition_summary: read-out: GI
measured_property: inhibition of growth at 10 µM

                                    compound              measured_property  readout_value
 0  O=C(Nc1ccc(Cl)cc1)N1CCN(c2nnc(Cc3ccccc3)c3ccccc23)CC1  inhibition of growth at 10 µM          29.4%
 1  COc1ccc(Cc2nnc(N3CCN(C(=O)Nc4ccc(OC)cc4)CC3)c3ccccc23)cc1  inhibition of growth at 10 µM          57.5%
 2  COc1ccc(Cc2nnc(N3CCN(C(=S)Nc4ccc(Cl)cc4)CC3)c3ccccc23)cc1  inhibition of growth at 10 µM          81.4%
 3  COc1ccc(Cc2nnc(N3CCN(C(=O)Nc4ccc(Cl)c(C(F)(F)F)c4)CC3)c3ccccc23)cc1  inhibition of growth at 10 µM          89.6%
 4  O=C(Nc1ccc(Cl)c(C(F)(F)F)c1)N1CCN(c2nnc(Cc3ccccc3)c3ccccc23)CC1  inhibition of growth at 10 µM          4.71%
 5  COc1ccc(C(=O)N2CCN(c3nnc(Cc4ccccc4)c4ccccc34)CC2)cc1  inhibition of growth at 10 µM             2%
 6  COc1ccc(Cc2nnc(N3CCN(C(=O)c4ccccc4)CC3)c3ccccc23)cc1  inhibition of growth at 10 µM          18.3%
 7  S=C(Nc1ccccc1)N1CCN(c2nnc(Cc3ccccc3)c3ccccc23)CC1  inhibition of growth at 10 µM            56%
 8  O=C(c1ccccc1)N1CCN(c2nnc(Cc3ccccc3)c3ccccc23)CC1  inhibition of growth at 10 µM          26.3%
 9  COc1ccc(Cc2nnc(N3CCN(C(=S)Nc4cccc(Cl)c4)CC3)c3ccccc23)cc1  inhibition of growth at 10 µM          88.2%
10  COc1ccc(Cc2nnc(N3CCN(C(=S)Nc4ccc(OC)cc4)CC3)c3ccccc23)cc1  inhibition of growth at 10 µM          19.3%
11  COc1ccc(Cc2nnc(N3CCN(C(=O)Nc4ccccc4)CC3)c3ccccc23)cc1  inhibition of growth at 10 µM          53.6%
12  O=C(Nc1ccccc1)N1CCN(c2nnc(Cc3ccccc3)c3ccccc23)CC1  inhibition of growth at 10 µM          63.1%
13  COc1cccc(NC(=S)N2CCN(c3nnc(Cc4ccccc4)c4ccccc34)CC2)c1  inhibition of growth at 10 µM          49.7%
14  S=C(Nc1cccc(Cl)c1)N1CCN(c2nnc(Cc3ccccc3)c3ccccc23)CC1  inhibition of growth at 10 µM          81.7%
15  COc1ccc(NC(=S)N2CCN(c3nnc(Cc4ccccc4)c4ccccc34)CC2)cc1  inhibition of growth at 10 µM          9.67%
16  O=C(c1ccc(Cl)cc1)N1CCN(c2nnc(Cc3ccccc3)c3ccccc23)CC1  inhibition of growth at 10 µM          16.7%
17  S=C(Nc1ccc(Cl)cc1)N1CCN(c2nnc(Cc3ccccc3)c3ccccc23)CC1  inhibition of growth at 10 µM          12.2%
18  COc1ccc(Cc2nnc(N3CCN(C(=S)Nc4ccccc4)CC3)c3ccccc23)cc1  inhibition of growth at 10 µM          7.38%
19  COc1ccc(NC(=O)N2CCN(c3nnc(Cc4ccccc4)c4ccccc34)CC2)cc1  inhibition of growth at 10 µM            48%

This collection of values is drawn from ChEMBL document CHEMBL5352421.
